Overview of reported T/C across a group of molecules:
# System: BDF1 mice, P388 leukemia ip, median survival T/C
# assayNotes: NCI In Vivo Anticancer Drug Screen. Data for tumor model P388 Leukemia (intraperitoneal) in B6D2F1 (BDF1) mice
# conditionContext: endpoint: median survival time; dose: 100.0 mg/kg/injection; schedule: Q01DX009 (ip); vehicle: Klucel (hydroxypropylcellulose) (HPC); higher = longer survival
# Procedure: The antitumor activity of compounds was measured in mice bearing transplantable tumors. Survival or tumor size were measured and the results are expressed as the measurement made in the treated group (T) divided by the measurement made in the vehicle treated control group (C). The tumor model used in this assay is P388 Leukemia (intraperitoneal) in B6D2F1 (BDF1) mice
Inconclusive results and toxic doses are left out.

# molecule, T/C
records = [
    ("O=C1C(Cl)=C(Cl)C(=O)C2=C1C1c3ccccc3C2c2ccccc21", "115 % of control"),
    ("Cc1cccc(N=P(c2ccccc2)(c2ccccc2)c2ccccc2)c1", "118 % of control"),
    ("O=C(Nc1cccc(C(F)(F)F)c1)Nc1nccs1", "102 % of control"),
    ("COC(=O)c1ccc(C(=O)OC)c(=O)[nH]1", "100 % of control"),
    ("O=NN(CS(=O)(=O)O)c1ccccc1", "104 % of control"),
    ("CC(=O)OCCCc1ccccc1", "109 % of control"),
    ("CCCCCCCCCCCCCCCCOc1ccccn1", "95 % of control"),
    ("CC[C@@H]1C[C@@H]2CN3CCc4c([nH]c5ccc(OC)cc45)C(C(=O)OC)(C2)C13", "113 % of control"),
    ("C/C(=C\\COc1ccc2ccc(=O)oc2c1)C1=CC(=O)C(C)(C)O1", "87 % of control"),
    ("COc1ccc(/C=C/C(=O)c2ccccc2)cc1OC", "105 % of control"),
    ("c1ccc(C2C3(c4ccccc4)C4(c5ccccc5)OC(c5ccccc5)(c5ccccc54)C23c2ccccc2)cc1 (centres undefined)", "103 % of control"),
    ("Cc1ccc(N2C(=O)CC(Sc3ccccc3N)C2=O)cc1 (centres undefined)", "105 % of control"),
    ("O=C(O)CNC(=O)CCl", "120 % of control"),
    ("CC(=O)Nc1cccc(Cl)c1C", "100 % of control"),
    ("OCC(F)(F)C(F)(F)C(F)(F)C(F)F", "95 % of control"),
    ("O=[N+]([O-])c1cc([N+](=O)[O-])c2nn(-c3ccccc3)[n+]([O-])c2c1", "90 % of control"),
    ("Cc1noc(C)c1CC1(Cc2c(C)noc2C)C(=O)CCC2(C)CCCC=C21 (centres undefined)", "104 % of control"),
    ("O=C(OC1COC(n2c(=O)oc3ccc(F)cc32)C(OC(=O)c2ccccc2)C1OC(=O)c1ccccc1)c1ccccc1 (centres undefined)", "104 % of control"),
    ("CC1(C)C=C(C(Br)c2cccc(Br)c2)C(=O)c2ccccc21 (centres undefined)", "120 % of control"),
    ("O=C(CCCl)N1CCN(C(=O)CCCl)CC1", "90 % of control"),
    ("CC(CCCC1SCC2NC(=O)NC21)C(=O)O (centres undefined)", "102 % of control"),
    ("N#CC(C#N)=Cc1cccc([N+](=O)[O-])c1", "95 % of control"),
    ("CN(C1=NS(=O)(=O)N=C(N(C)c2ccccc2)O1)c1ccccc1", "115 % of control"),
    ("CC12C(=O)C(C)(C(c3ccccc3)=C1c1ccccc1)C1(c3ccccc3)C(c3ccccc3)C21c1ccccc1 (centres undefined)", "100 % of control"),
    ("CCOC(=O)c1c(C)c2c(n1C)CCc1cn[nH]c1-2", "120 % of control"),
    ("C=CCOP(=O)(OCC=C)OCC=C", "104 % of control"),
    ("CC(=O)O[C@]1(C(C)=O)CC[C@H]2[C@@H]3C=C(Cl)C4=CC(=O)[C@@H]5C[C@@H]5[C@]4(C)[C@H]3CC[C@@]21C", "95 % of control"),
    ("N#Cc1ccccc1NN=Nc1ccccc1-c1nc(N)nc(N)n1", "122 % of control"),
    ("Cc1cc(=O)[nH]c(N/N=C/C(C)C)n1", "100 % of control"),
    ("C[C@]12CCC(=O)C=C1CC[C@H]1[C@@H]3CC[C@](O)(C(=O)CO)[C@@]3(C)C[C@H](O)[C@@]12F", "90 % of control"),
    ("O=C(NNc1ccc([N+](=O)[O-])cc1)c1ccccc1", "90 % of control"),
    ("O=c1ccc2nc3cc(Cl)ccc3sc-2c1", "109 % of control"),
    ("CC1(C)N=C(N)N=C(N)N1c1ccc(OCc2ccc(C(=O)Nc3cccc(S(=O)(=O)F)c3)cc2)c(Cl)c1", "95 % of control"),
    ("Cc1nn(C)c2ccc([N+](=O)[O-])cc12", "118 % of control"),
]

Value source: PubChem BioAssay AID328
